target or system: Mas-related G-protein coupled receptor member X1 (Rattus norvegicus, UniProt Q8R4G1)
Sequence (Q8R4G1 whole entry): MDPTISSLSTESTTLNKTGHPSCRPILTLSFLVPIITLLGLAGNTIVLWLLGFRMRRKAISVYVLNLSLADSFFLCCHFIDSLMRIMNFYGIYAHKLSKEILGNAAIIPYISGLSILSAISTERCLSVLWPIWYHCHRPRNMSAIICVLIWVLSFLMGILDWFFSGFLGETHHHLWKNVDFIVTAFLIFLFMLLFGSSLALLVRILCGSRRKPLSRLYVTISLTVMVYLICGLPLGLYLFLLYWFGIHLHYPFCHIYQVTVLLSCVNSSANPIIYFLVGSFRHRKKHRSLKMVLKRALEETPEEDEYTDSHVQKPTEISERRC
measurement description: Agonist activity at rat MrgX1 transfected in HEK293 cells by FLIPR assay
Square brackets hold non-standard residues; d marks the D form. Peptide text beside a SMILES is read from it. dPhe(4-guanidino) = N=C(N)Nc1ccc(C[C@@H](N)C(=O)O)cc1; Phe(4-guanidino) = N=C(N)Nc1ccc(C[C@H](N)C(=O)O)cc1
quantity kind: pEC50
Here pEC50 is given on a logarithmic scale as minus log10 of the concentration in mol/L.

compound: N=C(N)Nc1ccc(C[C@@H](N)C(=O)N[C@@H](Cc2ccccc2)C(N)=O)cc1 (H-[dPhe(4-guanidino)]-Phe-NH2)
pEC50: 6.20

compound: N=C(N)Nc1ccc(C[C@H](N)C(=O)N[C@@H](Cc2ccccc2)C(N)=O)cc1 (H-[Phe(4-guanidino)]-Phe-NH2)
pEC50: 4.30

Please look at the following compound next.
Provide the documented pEC50 with Mas-related G-protein coupled receptor member X1 (Rattus norvegicus, UniProt Q8R4G1) as the system for N=C(N)N1CCC(C(N)C(=O)N[C@@H](Cc2ccccc2)C(N)=O)CC1 (stereo partly specified) 5.40
